# measurement_protocol: Pharmacokinetics in CD-1 mice
# Type: in vivo
# assay_setup: CD-1, mouse, plasma, iv, 50 mg/kg, single intravenous dose 50 mg/kg, mice sets 1-3 and mean ± S.D., read-out: t½ (elimination half-life) (converted)
assay_readout: half-life

Output half-life of CCC(=O)NC(CC(C)C(Cl)(Cl)Cl)C(=O)N1C(=O)C=C(OC)C1CC(C)C(Cl)Cl (stereo not shown) [SINT1, Sintokamide A] 1.38 h

----------
# measurement_protocol: Pharmacokinetics in CD-1 mice
# Format: in vivo
# assay_setup: CD-1, mouse, plasma, iv, 50 mg/kg, single intravenous dose 50 mg/kg, read-out: Cmax in plasma
assay_readout: Cmax

Output Cmax of CCC(=O)NC(CC(C)C(Cl)(Cl)Cl)C(=O)N1C(=O)C=C(OC)C1CC(C)C(Cl)Cl (stereo not shown) [SINT1, Sintokamide A] ~8 µM
